Source: patent US20240109865A1

Kd: recorded values
# subjectOfTest: FGFR1 (Homo sapiens (Human), UniProt P11362)
# Sequence (P11362 22-822): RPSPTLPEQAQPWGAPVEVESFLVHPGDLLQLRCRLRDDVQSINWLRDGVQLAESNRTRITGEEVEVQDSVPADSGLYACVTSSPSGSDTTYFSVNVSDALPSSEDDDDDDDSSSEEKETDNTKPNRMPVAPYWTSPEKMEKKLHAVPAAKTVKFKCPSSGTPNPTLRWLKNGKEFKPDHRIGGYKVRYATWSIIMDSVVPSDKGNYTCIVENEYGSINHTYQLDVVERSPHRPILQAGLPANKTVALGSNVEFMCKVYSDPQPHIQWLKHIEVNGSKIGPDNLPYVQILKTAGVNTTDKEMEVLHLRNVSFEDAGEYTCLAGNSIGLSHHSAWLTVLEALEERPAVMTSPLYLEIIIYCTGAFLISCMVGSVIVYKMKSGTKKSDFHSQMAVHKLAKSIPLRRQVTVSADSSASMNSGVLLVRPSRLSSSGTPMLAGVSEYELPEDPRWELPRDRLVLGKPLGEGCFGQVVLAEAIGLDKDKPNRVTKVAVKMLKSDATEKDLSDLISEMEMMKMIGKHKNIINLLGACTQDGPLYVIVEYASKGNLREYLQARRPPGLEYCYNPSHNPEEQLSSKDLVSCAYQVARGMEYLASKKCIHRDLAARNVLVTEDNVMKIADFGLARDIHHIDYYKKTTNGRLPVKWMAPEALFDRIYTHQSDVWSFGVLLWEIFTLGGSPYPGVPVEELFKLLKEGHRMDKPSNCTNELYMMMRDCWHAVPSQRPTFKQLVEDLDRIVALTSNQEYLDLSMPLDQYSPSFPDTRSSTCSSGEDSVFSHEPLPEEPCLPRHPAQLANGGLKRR
# measurementDescription: Kinase assay, binding constants (Kd), kinase-tagged T7 phage, qPCR

compound	Kd
C[C@@H](Oc1ccc2[nH]nc(-c3cnc(N4CC5(CCN(S(C)(=O)=O)CC5)C4)nc3)c2c1)c1c(Cl)cncc1Cl [Example 137]	20 to 100 nM
C[C@@H](Oc1ccc2[nH]nc(-c3cnc(N4CCN(C(=O)N5CCN(C)CC5)CC4)c(F)c3)c2c1)c1c(Cl)cncc1Cl [Example 13]	1 to 20 nM
C[C@@H](Oc1ccc2[nH]nc(-c3ccc(N4CCC5(CCC(=O)N5C)CC4)nc3)c2c1)c1c(Cl)cncc1Cl [Example 40]	1 to 20 nM
COc1cc2[nH]nc(-c3cnc(N4CC5(COC5)C4)c(C#N)c3)c2cc1O[C@H](C)c1c(C)cnnc1C [Example 324]	20 to 100 nM
C[C@@H](Oc1ccc2[nH]nc(-c3ccc(N4CCCNC(=O)C4)nc3)c2c1)c1c(Cl)cncc1Cl [Example 35]	20 to 100 nM

====

Below: a set of entries, each annotated with reported Kd.
# subjectOfTest: FGFR3 (V555M) (Homo sapiens (Human), UniProt P22607, V555M)
# Sequence (P22607 23-806 V555M): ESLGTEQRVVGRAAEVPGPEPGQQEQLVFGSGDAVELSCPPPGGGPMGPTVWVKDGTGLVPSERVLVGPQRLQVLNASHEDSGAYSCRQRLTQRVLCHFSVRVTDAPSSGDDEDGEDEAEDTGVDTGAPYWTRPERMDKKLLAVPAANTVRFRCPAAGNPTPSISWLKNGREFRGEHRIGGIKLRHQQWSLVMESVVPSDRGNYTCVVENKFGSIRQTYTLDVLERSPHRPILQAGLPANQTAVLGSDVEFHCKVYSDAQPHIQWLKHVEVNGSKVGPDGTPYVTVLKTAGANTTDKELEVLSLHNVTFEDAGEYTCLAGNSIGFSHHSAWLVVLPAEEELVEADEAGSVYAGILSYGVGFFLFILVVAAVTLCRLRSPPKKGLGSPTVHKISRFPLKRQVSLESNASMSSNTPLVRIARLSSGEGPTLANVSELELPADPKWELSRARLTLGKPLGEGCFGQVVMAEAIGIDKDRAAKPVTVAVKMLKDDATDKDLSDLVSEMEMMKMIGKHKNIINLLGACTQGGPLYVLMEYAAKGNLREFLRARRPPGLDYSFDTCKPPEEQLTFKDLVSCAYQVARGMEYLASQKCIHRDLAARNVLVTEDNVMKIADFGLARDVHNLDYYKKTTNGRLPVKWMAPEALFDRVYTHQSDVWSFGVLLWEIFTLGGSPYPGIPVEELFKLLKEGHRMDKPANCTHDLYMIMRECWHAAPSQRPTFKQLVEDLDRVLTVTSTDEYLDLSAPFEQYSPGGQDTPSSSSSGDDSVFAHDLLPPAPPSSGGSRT
# measurementDescription: Kinase assay, binding constants (Kd), kinase-tagged T7 phage, qPCR
# particulars: V555M mutant

compound	subjectOfTest	Kd
COc1cc2[nH]nc(-c3ccc(N4CC5(C4)CN(S(C)(=O)=O)C5)nc3)c2cc1O[C@H](C)c1c(Cl)cncc1Cl	FGFR3 (V555M) (Homo sapiens (Human), UniProt P22607, V555M)	1 to 20 nM
Cc1cnnc(C)c1[C@@H](C)Oc1ccc2[nH]nc(-c3ccc(N4CC5(COC5)C4)nc3)c2c1	FGFR3 (V555M) (Homo sapiens (Human), UniProt P22607, V555M)	1 to 20 nM
Cc1ncc(Cl)c([C@@H](C)Oc2ccc3[nH]nc(-c4ccc(N5CC6(CCC6)C5)nc4)c3c2)c1Cl	FGFR3 (V555M) (Homo sapiens (Human), UniProt P22607, V555M)	1 to 20 nM
CCN1CC[C@H](n2cc(-c3n[nH]c4ccc(O[C@H](C)c5c(Cl)cncc5Cl)cc34)cn2)C1	FGFR3 (V555M) (Homo sapiens (Human), UniProt P22607, V555M)	1 to 20 nM
CC(Oc1ccc2[nH]nc(-c3ccc(N4CC5(C4)CN(S(C)(=O)=O)C5)nc3)c2c1)c1c(Cl)ccnc1Cl (centres unmarked)	FGFR3 (V555M) (Homo sapiens (Human), UniProt P22607, V555M)	1 to 20 nM
C[C@@H](Oc1cc2c(-c3cnc(N4CC[C@@H]4C)c(C#N)c3)n[nH]c2cc1Cl)c1c(Cl)cncc1Cl	FGFR3 (V555M) (Homo sapiens (Human), UniProt P22607, V555M)	100 to 300 nM
C[C@@H](Oc1cc2c(-c3cnc(N4CC5(C4)CN(S(C)(=O)=O)C5)c(F)c3)n[nH]c2cc1F)c1c(Cl)cnnc1Cl	FGFR3 (V555M) (Homo sapiens (Human), UniProt P22607, V555M)	1 to 20 nM
C[C@@H](Oc1ccc2[nH]nc(-c3cnc(N4CCC4)c(C#N)c3)c2c1)c1c(Cl)cncc1Cl	FGFR3 (V555M) (Homo sapiens (Human), UniProt P22607, V555M)	20 to 100 nM
C[C@@H](Oc1ccc2[nH]nc(-c3cnc(N4CCCC4)c(C#N)c3)c2c1)c1c(Cl)cnc(F)c1Cl	FGFR3 (V555M) (Homo sapiens (Human), UniProt P22607, V555M)	> 300 nM
COc1cc2[nH]nc(-c3ccc(N4CC5(C4)CN(S(C)(=O)=O)C5)nc3)c2cc1O[C@H](C)c1c(Cl)cnc(C)c1Cl	FGFR3 (V555M) (Homo sapiens (Human), UniProt P22607, V555M)	1 to 20 nM
C[C@@H](Oc1ccc2[nH]nc(-c3ccc(N4CCN(C(N)=O)CC4)nc3)c2c1)c1c(Cl)cncc1Cl	FGFR3 (V555M) (Homo sapiens (Human), UniProt P22607, V555M)	1 to 20 nM

====

Measured Kd accompanies every entry in the list below.
# subjectOfTest: FGFR1 (Homo sapiens (Human), UniProt P11362)
# measurementDescription: Kinase assay, binding constants (Kd), kinase-tagged T7 phage, qPCR

compound	Kd
COc1cc2[nH]nc(-c3cnc(N4CC5(COC5)C4)c(C#N)c3)c2cc1O[C@H](C)c1c(C)cnnc1C [Example 218]	20 to 100 nM
CCOC(=O)N1CC2(C1)CN(c1ncc(-c3n[nH]c4ccc(O[C@H](C)c5c(Cl)cnc(C)c5Cl)cc34)cn1)C2 [Example 185]	> 300 nM
C[C@@H](Oc1ccc2[nH]nc(-c3cnc(N4CCC5(CCCN5C)CC4)nc3)c2c1)c1c(Cl)cncc1Cl [Example 52]	1 to 20 nM
C[C@@H](Oc1cc2c(-c3cnc(N4CC5(C4)CN(S(C)(=O)=O)C5)c(C#N)c3)n[nH]c2cc1F)c1c(Cl)cncc1Cl [Example 355]	1 to 20 nM
CCS(=O)(=O)N1CCCC2(CN(c3ccc(-c4n[nH]c5ccc(O[C@H](C)c6c(C)cnnc6C)cc45)cn3)C2)C1 [Example 186]	100 to 300 nM
COc1cc2[nH]nc(-c3ccc(N4CCN5C(=O)NCC5C4)nc3)c2cc1O[C@H](C)c1c(C)cnnc1C (stereo partly shown) [Example 228]	1 to 20 nM
C[C@@H](Oc1ccc2[nH]nc(-c3ccc(N4CCC5(CC4)CCS(=O)(=O)C5)nc3)c2c1)c1c(Cl)cncc1Cl [Example 78]	1 to 20 nM
CCOC(=O)N1CC2(C1)CN(c1ncc(-c3n[nH]c4ccc(O[C@H](C)c5c(C)cnnc5C)cc34)cn1)C2 [Example 146]	100 to 300 nM
CC(C)OC(=O)N1CCCC2(C1)CN(c1ncc(-c3n[nH]c4ccc(O[C@H](C)c5c(Cl)cncc5Cl)cc34)cn1)C2 [Example 135]	> 300 nM
C[C@@H](Oc1ccc2[nH]nc(-c3ccc(N4CC(C(F)(F)F)C4)nc3)c2c1)c1c(Cl)cncc1Cl [Example 249]	20 to 100 nM
COc1cc(-c2n[nH]c3ccc(O[C@H](C)c4c(C)cnnc4C)cc23)cnc1N1CC2CC(C1)N2CC(C)(C)O [Example 323]	> 300 nM
C[C@@H](Oc1ccc2[nH]nc(-c3ccc(N4CC5CC(C4)N5S(C)(=O)=O)nc3)c2c1)c1c(Cl)cncc1Cl [Example 20]	20 to 100 nM
C[C@@H](Oc1ccc2[nH]nc(-c3ccc(N4CCN(C(=O)N5CCOCC5)CC4)nc3)c2c1)c1c(Cl)cncc1Cl [Example 3]	1 to 20 nM
C[C@@H](Oc1ccc2[nH]nc(-c3cnc(N4CCC5(CCNC5=O)CC4)nc3)c2c1)c1c(Cl)cncc1Cl [Example 55]	20 to 100 nM
C[C@@H](Oc1ccc2[nH]nc(-c3ccc(N4CC5(CCNCC5)C4)nc3)c2c1)c1c(Cl)cncc1Cl [Example 110]	1 to 20 nM
CNCc1cc(-c2n[nH]c3ccc(O[C@H](C)c4c(Cl)cncc4Cl)cc23)cnc1N1CC2(C1)CN(S(C)(=O)=O)C2 [Example 368]	> 300 nM

====

# subjectOfTest: FGFR3 (V555M) (Homo sapiens (Human), UniProt P22607, V555M)
# measurementDescription: Kinase assay, binding constants (Kd), kinase-tagged T7 phage, qPCR
# particulars: V555M mutant

compound	Kd
C[C@@H](Oc1cc2c(-c3cnc(N4CCC4)c(C#N)c3)n[nH]c2cc1Cl)c1c(Cl)cncc1Cl [Example 377]	20 to 100 nM
C[C@@H](Oc1ccc2[nH]nc(-c3ccc(N4CCC5(CC4)CN(C)CC(=O)N5C)nc3)c2c1)c1c(Cl)cncc1Cl [Example 98]	1 to 20 nM
C[C@@H](Oc1ccc2[nH]nc(-c3ccc(N4CC5(C4)CN(S(C)(=O)=O)C5)nc3)c2c1)c1c(Cl)cccc1Cl [Example 170]	1 to 20 nM
COc1cc2[nH]nc(-c3cnc(N4CC5CC(C4)N5)c(C)c3)c2cc1O[C@H](C)c1c(C)cnnc1C [Example 317]	1 to 20 nM
C[C@@H](Oc1ccc2[nH]nc(-c3ccc(N4CC5(CCNCC5)OC4=O)nc3)c2c1)c1c(Cl)cncc1Cl [Example 74]	1 to 20 nM
COC1(C)CN(c2ccc(-c3n[nH]c4ccc(O[C@H](C)c5c(Cl)cnc(C)c5Cl)cc34)cn2)C1 [Example 210]	1 to 20 nM
C[C@@H](Oc1ccc2[nH]nc(-c3ccc(N4CCC5(CC4)C(=O)NCCN5C)nc3)c2c1)c1c(Cl)cncc1Cl [Example 34]	1 to 20 nM
C[C@@H]1CCN1c1ncc(-c2n[nH]c3cc(Cl)c(O[C@H](C)c4c(Cl)cncc4Cl)cc23)cc1C#N [Example 374]	20 to 100 nM
COc1cc2[nH]nc(-c3ccc(N4CCCC4)nc3)c2cc1O[C@H](C)c1c(Cl)cnc(C)c1Cl [Example 220]	1 to 20 nM
C[C@@H](Oc1ccc2[nH]nc(-c3cnc(N4CCN(S(C)(=O)=O)CC4)nc3)c2c1)c1c(Cl)cncc1Cl [Example 14]	1 to 20 nM
C[C@@H](Oc1ccc2[nH]nc(-c3cnn(C4CCN(CCO)CC4)c3)c2c1)c1c(Cl)cncc1Cl [Example 79]	1 to 20 nM
COc1cc2[nH]nc(-c3cnc(N4CC[C@H](O)C4)c(C#N)c3)c2cc1O[C@H](C)c1c(Cl)cncc1Cl [Example 327]	1 to 20 nM
C[C@@H](Oc1ccc2[nH]nc(-c3cnc(N4CC5(C4)CN(S(C)(=O)=O)C5)c(CN(C)C)c3)c2c1)c1c(Cl)cncc1Cl [Example 356]	100 to 300 nM
COc1cc2[nH]nc(-c3cnc(N4CC5(C4)CN(S(C)(=O)=O)C5)c(CN(C)C)c3)c2cc1O[C@H](C)c1c(Cl)cncc1Cl [Example 357]	20 to 100 nM
C[C@@H](Oc1ccc2[nH]nc(-c3ccc(N4CCN(S(C)(=O)=O)C5(CC5)C4)nc3)c2c1)c1c(Cl)cncc1Cl [Example 22]	1 to 20 nM
C[C@@H](Oc1ccc2[nH]nc(-c3ccc(N4CC5(CCN5S(C)(=O)=O)C4)nc3)c2c1)c1c(Cl)cncc1Cl [Example 100]	1 to 20 nM
